Reference for the values: patent US6613747B2

tested on: E. faecalis ATCC29212; assay: MIC, microdilution broth method (NCCLS); type: cell-based; details: C: E. faecalis ATCC29212, 35° C., 16-20 hours
quantity.name: MIC (µg/mL)
Number only, in µg/mL; omit the unit.

* CC[C@H]1OC(=O)[C@H](C)C(=O)[C@H](C)[C@@H](O[C@@H]2O[C@H](C)C[C@H](N(C)C)[C@H]2O)[C@](C)(OC(=O)NCCNCc2cnc3ccccc3c2)C[C@@H](C)C(=O)[C@H](C)[C@H]2NC(=O)O[C@@]21C | 0.25
* CC[C@H]1OC(=O)[C@H](C)C(=O)[C@H](C)[C@@H](O[C@@H]2O[C@H](C)C[C@H](N(C)C)[C@H]2O)[C@](C)(OC(=O)NC/C=C/c2ccc(-n3cccn3)c(F)c2)C[C@@H](C)C(=O)[C@H](C)[C@H]2NC(=O)O[C@@]21C | 0.12
* CC[C@H]1OC(=O)[C@H](C)C(=O)[C@H](C)[C@@H](O[C@@H]2O[C@H](C)C[C@H](N(C)C)[C@H]2O)[C@](C)(OC(=O)NCCCc2ccccc2)C[C@@H](C)C(=O)[C@H](C)[C@H]2NC(=O)O[C@@]21C | 0.25

q: Identify the measured MIC of CC[C@H]1OC(=O)[C@H](C)C(=O)[C@H](C)[C@@H](O[C@@H]2O[C@H](C)C[C@H](N(C)C)[C@H]2O)[C@](C)(OC(=O)NCC2CC(c3ccc(-c4ncccn4)cc3)C2)C[C@@H](C)C(=O)[C@H](C)[C@H]2NC(=O)O[C@@]21C (some centres unmarked) for E. faecalis ATCC29212.
a: 2

q: Identify the measured MIC of CC[C@H]1OC(=O)[C@H](C)C(=O)[C@H](C)[C@@H](O[C@@H]2O[C@H](C)C[C@H](N(C)C)[C@H]2O)[C@](C)(OC(=O)NCCNC(=O)c2cccnc2)C[C@@H](C)C(=O)[C@H](C)[C@H]2NC(=O)O[C@@]21C for E. faecalis ATCC29212.
a: 2

q: Identify the measured MIC of CC[C@H]1OC(=O)[C@H](C)C(=O)[C@H](C)[C@@H](O[C@@H]2O[C@H](C)C[C@H](N(C)C)[C@H]2O)[C@](C)(OC(=O)NC/C=C/c2ccc(-c3ccncn3)cc2)C[C@@H](C)C(=O)[C@H](C)[C@H]2NC(=O)O[C@@]21C for E. faecalis ATCC29212.
a: 0.06

q: Identify the measured MIC of CC[C@H]1OC(=O)[C@H](C)C(=O)[C@H](C)[C@@H](O[C@@H]2O[C@H](C)C[C@H](N(C)C)[C@H]2O)[C@](C)(OC(=O)N2Cc3ccccc3C2)C[C@@H](C)C(=O)[C@H](C)[C@H]2NC(=O)O[C@@]21C for E. faecalis ATCC29212.
a: 2

q: Identify the measured MIC of CC[C@H]1OC(=O)[C@H](C)C(=O)[C@H](C)[C@@H](O[C@@H]2O[C@H](C)C[C@H](N(C)C)[C@H]2O)[C@](C)(OC(=O)NC/C=C/c2ccc(-c3ccc([N+](=O)[O-])cn3)cc2)C[C@@H](C)C(=O)[C@H](C)[C@H]2NC(=O)O[C@@]21C for E. faecalis ATCC29212.
a: 0.5

---

tested on: E. coli OC2605; assay: MIC, microdilution broth method (NCCLS); format: cell-based; conditions: A: E. coli OC2605, 35° C., 16-20 hours
quantity.name: MIC (µg/mL)
Number only, in µg/mL; omit the unit.

q: Item CC[C@H]1OC(=O)[C@H](C)C(=O)[C@H](C)[C@@H](O[C@@H]2O[C@H](C)C[C@H](N(C)C)[C@H]2O)[C@](C)(OC(=O)NC/C=C/c2ccc3nccnc3c2)C[C@@H](C)C(=O)[C@H](C)[C@H]2NC(=O)O[C@@]21C [Compound 41] has what recorded MIC?
a: 16

q: Item CC[C@H]1OC(=O)[C@H](C)C(=O)[C@H](C)[C@@H](O[C@@H]2O[C@H](C)C[C@H](N(C)C)[C@H]2O)[C@](C)(OC(=O)NC/C=C/c2ccc(-n3cccn3)nc2)C[C@@H](C)C(=O)[C@H](C)[C@H]2NC(=O)O[C@@]21C [Compound 49] has what recorded MIC?
a: 16

---

Catalogue of MIC readings, one per entry.
tested on: E. coli OC2605; experiment: MIC, microdilution broth method (NCCLS); type: cell-based; conditions: A: E. coli OC2605, 35° C., 16-20 hours
Number only, in µg/mL; omit the unit.

- CCC1OC(=O)C(C)(F)C(=O)C(C)C(OC2OC(C)CC(N(C)C)C2O)C(C)(OC(=O)NCC=Cc2ccc(-c3ncccn3)cc2)CC(C)C(=O)C(C)C2NC(=O)OC12C (stereo not shown) [Compound 89]: 16
- CC[C@H]1OC(=O)[C@H](C)C(=O)[C@H](C)[C@@H](O[C@@H]2O[C@H](C)C[C@H](N(C)C)[C@H]2O)[C@](C)(OC(=O)NC/C=C/c2ccc(-c3cncnc3)cc2)C[C@@H](C)C(=O)[C@H](C)[C@H]2NC(=O)O[C@@]21C: 16

q: Item CC[C@H]1OC(=O)[C@H](C)C(=O)[C@H](C)[C@@H](O[C@@H]2O[C@H](C)C[C@H](N(C)C)[C@H]2O)[C@](C)(OC(=O)NC/C=C/c2ccc(-n3cncn3)cc2)C[C@@H](C)C(=O)[C@H](C)[C@H]2NC(=O)O[C@@]21C has what recorded MIC?
a: 16

---

tested on: E. coli OC2605; assay: MIC, microdilution broth method (NCCLS); assay type: cell-based; details: A: E. coli OC2605, 35° C., 16-20 hours
quantity.name: MIC

See these solved cases before continuing.
- CC[C@H]1OC(=O)[C@H](C)C(=O)[C@H](C)[C@@H](O[C@@H]2O[C@H](C)C[C@H](N(C)C)[C@H]2O)[C@](C)(OC(=O)NCCN2C(=O)c3ccccc3C2=O)C[C@@H](C)C(=O)[C@H](C)[C@H]2NC(=O)O[C@@]21C: >16 µg/mL
- CC[C@H]1OC(=O)[C@H](C)C(=O)[C@H](C)[C@@H](O[C@@H]2O[C@H](C)C[C@H](N(C)C)[C@H]2O)[C@](C)(OC(=O)NC/C=C/c2ccc(-n3cncn3)c(F)c2)C[C@@H](C)C(=O)[C@H](C)[C@H]2NC(=O)O[C@@]21C: 16 µg/mL
- CC[C@H]1OC(=O)[C@H](C)C(=O)[C@H](C)[C@@H](O[C@@H]2O[C@H](C)C[C@H](N(C)C)[C@H]2O)[C@](C)(OC(=O)NC/C=C/c2ccc(-c3ccncn3)cc2)C[C@@H](C)C(=O)[C@H](C)[C@H]2NC(=O)O[C@@]21C: >16 µg/mL
- CC[C@H]1OC(=O)[C@H](C)C(=O)[C@H](C)[C@@H](O[C@@H]2O[C@H](C)C[C@H](N(C)C)[C@H]2O)[C@](C)(OC(=O)NC/C=C/c2ccc(-c3ccccn3)cc2)C[C@@H](C)C(=O)[C@H](C)[C@H]2NC(=O)O[C@@]21C: 16 µg/mL
- CC[C@H]1OC(=O)[C@H](C)C(=O)[C@H](C)[C@@H](O[C@@H]2O[C@H](C)C[C@H](N(C)C)[C@H]2O)[C@](C)(OC(=O)NC/C=C/C=C/c2ccc(-n3cccn3)cc2)C[C@@H](C)C(=O)[C@H](C)[C@H]2NC(=O)O[C@@]21C: >16 µg/mL

q: Item CCC1OC(=O)C(C)(F)C(=O)C(C)C(OC2OC(C)CC(N(C)C)C2O)C(C)(OC(=O)NCC=Cc2ccc(-c3cccnn3)cc2)CC(C)C(=O)C(C)C2NC(=O)OC12C (centres unmarked) has what recorded MIC?
a: 8 µg/mL

q: Item CC[C@H]1OC(=O)[C@H](C)C(=O)[C@H](C)[C@@H](O[C@@H]2O[C@H](C)C[C@H](N(C)C)[C@H]2O)[C@](C)(OC(=O)NC/C=C/c2ccnc3ccccc23)C[C@@H](C)C(=O)[C@H](C)[C@H]2NC(=O)O[C@@]21C has what recorded MIC?
a: 8 µg/mL

q: Item CC[C@H]1OC(=O)[C@H](C)C(=O)[C@H](C)[C@@H](O[C@@H]2O[C@H](C)C[C@H](N(C)C)[C@H]2O)[C@](C)(OC(=O)NCCCc2ccc(N(C)C)cc2)C[C@@H](C)C(=O)[C@H](C)[C@H]2NC(=O)O[C@@]21C has what recorded MIC?
a: >16 µg/mL

---

system: E. faecalis ATCC29212; assay: MIC, microdilution broth method (NCCLS); format: cell-based; settings: C: E. faecalis ATCC29212, 35° C., 16-20 hours
quantity.name: MIC (µg/mL)
Number only, in µg/mL; omit the unit.

See these solved cases before continuing.
- CC[C@H]1OC(=O)[C@H](C)C(=O)[C@H](C)[C@@H](O[C@@H]2O[C@H](C)C[C@H](N(C)C)[C@H]2O)[C@](C)(OC(=O)NCC#Cc2ccc(-n3cccn3)cc2)C[C@@H](C)C(=O)[C@H](C)[C@H]2NC(=O)O[C@@]21C [Compound 82]: 0.06
- CC[C@H]1OC(=O)[C@H](C)C(=O)[C@H](C)[C@@H](O[C@@H]2O[C@H](C)C[C@H](N(C)C)[C@H]2O)[C@](C)(OC(=O)NC/C=C/c2ccc(-c3ccncc3)cc2)C[C@@H](C)C(=O)[C@H](C)[C@H]2NC(=O)O[C@@]21C [Compound 26]: 0.12
- CC[C@H]1OC(=O)[C@H](C)C(=O)[C@H](C)[C@@H](O[C@@H]2O[C@H](C)C[C@H](N(C)C)[C@H]2O)[C@](C)(OC(=O)NC/C=C/c2ccc(-c3ccccn3)s2)C[C@@H](C)C(=O)[C@H](C)[C@H]2NC(=O)O[C@@]21C [Compound 57]: 0.12
- CCC1OC(=O)C(C)(F)C(=O)C(C)C(OC2OC(C)CC(N(C)C)C2O)C(C)(OC(=O)NCC=Cc2ccc(-n3cccn3)cc2)CC(C)C(=O)C(C)C2NC(=O)OC12C (centres unmarked) [Compound 91]: 0.12
- CC[C@H]1OC(=O)[C@H](C)C(=O)[C@H](C)[C@@H](O[C@@H]2O[C@H](C)C[C@H](N(C)C)[C@H]2O)[C@](C)(OC(=O)NCC#Cc2cnc3ccccc3c2)C[C@@H](C)C(=O)[C@H](C)[C@H]2NC(=O)O[C@@]21C [Compound 29]: 0.06
- CCC1OC(=O)C(C)(F)C(=O)C(C)C(OC2OC(C)CC(N(C)C)C2O)C(C)(OC(=O)NCC=Cc2ccc(-c3cccnn3)cc2)CC(C)C(=NO)C(C)C2NC(=O)OC12C (centres unmarked) [Compound 125]: 0.25

Now, please, on to the next compound.
q: Item CC[C@H]1OC(=O)[C@H](C)C(=O)[C@H](C)[C@@H](O[C@@H]2O[C@H](C)C[C@H](N(C)C)[C@H]2O)[C@](C)(OC(=O)NCc2ccc(Oc3ncccn3)cc2)C[C@@H](C)C(=O)[C@H](C)[C@H]2NC(=O)O[C@@]21C [Compound 83] has what recorded MIC?
a: 0.25
